tested on: malignant glioma (U87); test: MTT antiproliferative assay, U87; format: cell-based, human; settings: 72 h
readoutType: IC50

F[P-](F)(F)(F)(F)F.F[P-](F)(F)(F)(F)F.[Ru+2].c1ccc2c(c1)[nH]c1c(-c3ncc[nH]3)nccc12.c1cnc2c(c1)ccc1cccnc12.c1cnc2c(c1)ccc1cccnc12 : 14.7 µM
N.N.[Cl][Pt][Cl] [Cisplatin, reference compound] : 14.8 µM

Moving on to the next molecule.
Q: Hello, please tell me recorded IC50 for this one: "C#CCCC1(CCNC(=O)c2cc3cccnc3c3ncccc23)N=N1.F[P-](F)(F)(F)(F)F.F[P-](F)(F)(F)(F)F.[Ru+2].c1ccc2c(c1)[nH]c1c(-c3ncc[nH]3)nccc12.c1cnc2c(c1)ccc1cccnc12"
Result: 13.4 µM

* * *

tested on: lung adenocarcinoma (A549); experiment: MTT antiproliferative assay, A549; assay type: cell-based, human; conditions: SI = (IC50 for HLF)/(IC50 for A549)
readoutType: SI (selectivity index)

F[P-](F)(F)(F)(F)F.F[P-](F)(F)(F)(F)F.[Ru+2].c1ccc(-c2ccnc3c2ccc2c(-c4ccccc4)ccnc23)cc1.c1ccc(-c2ccnc3c2ccc2c(-c4ccccc4)ccnc23)cc1.c1ccc2[nH]c(-c3nccc4c3[nH]c3ccccc34)nc2c1 : higher
F[P-](F)(F)(F)(F)F.F[P-](F)(F)(F)(F)F.[Ru+2].c1ccc2nc(-c3nccc4c3[nH]c3ccccc34)ccc2c1.c1cnc2c(c1)ccc1cccnc12.c1cnc2c(c1)ccc1cccnc12 : higher
F[P-](F)(F)(F)(F)F.F[P-](F)(F)(F)(F)F.[Ru+2].c1ccc(-c2ccnc3c2ccc2c(-c4ccccc4)ccnc23)cc1.c1ccc(-c2ccnc3c2ccc2c(-c4ccccc4)ccnc23)cc1.c1ccc2nc(-c3nccc4c3[nH]c3ccccc34)ccc2c1 : higher
